The reported numbers originate from patent US20210379210A1.

# test-name: In-vivo PET imaging, lung uptake in wild type and bleomycin treated rats
# Design: species or system rat
# particulars: Sprague Dawley, rat, lung, intravenous, individual bleomycin treated rats (Group 2), baseline PET scan, 14 days post bleomycin; read-out: Lung uptake (% ID/g) @ 60-90 min
observed-property: tissue uptake (%ID/g)
Give bare numbers, in %ID/g.

IN: Item "Cc1nc(-c2nnn(C)c2COC(=O)N(C)CCCC[18F])ccc1O[C@H]1CCC[C@H](C(=O)O)C1" has what recorded tissue uptake?
OUT: 0.116

* * *

# test-name: In-vivo PET imaging in bleomycin treated rat model, LPA1 target engagement (% displacement)
# particulars: Sprague Dawley, rat, lung, intravenous, 3 mg/kg, bleomycin treated rats, Group 2 (3 mg/kg group, n=6), baseline
observed-property: tissue uptake (%ID/g)
Answers are plain numbers, in %ID/g.

IN: Need tissue uptake of "Cc1nc(-c2nnn(C)c2COC(=O)N(C)CCCC[18F])ccc1O[C@H]1CCC[C@H](C(=O)O)C1" , thanks.
OUT: 0.1

* * *

# test-name: In-vivo PET imaging in bleomycin treated rat model, LPA1 target engagement (% displacement)
# particulars: Sprague Dawley, rat, lung, intravenous, 10 mg/kg, bleomycin treated rats, Group 3 (10 mg/kg group, n=6), baseline
observed-property: tissue uptake (%ID/g)
Give bare numbers, in %ID/g.

IN: Which tissue uptake is listed for "Cc1nc(-c2nnn(C)c2COC(=O)N(C)CCCC[18F])ccc1O[C@H]1CCC[C@H](C(=O)O)C1" ?
OUT: 0.12

* * *

# test-name: Free fraction (free of protein binding) of the PET radioligand
# Assay type: in vitro ADME
# particulars: read-out: free fractions, free of protein binding
observed-property: fraction unbound

IN: Give its fraction unbound value. Item: "Cc1nc(-c2nnn(C)c2COC(=O)N(C)CCCC[18F])ccc1O[C@H]1CCC[C@H](C(=O)O)C1"
OUT: 0.05 to 0.11

* * *

# test-name: In-vivo PET imaging in bleomycin treated rat model, LPA1 target engagement (% displacement)
# particulars: Sprague Dawley, rat, lung, intravenous, 1 mg/kg, bleomycin treated rats, Group 1 (1 mg/kg group, n=6), baseline
observed-property: tissue uptake
Write the numeric value and append its unit.

IN: Fill in: tissue uptake of Cc1nc(-c2nnn(C)c2COC(=O)N(C)CCCC[18F])ccc1O[C@H]1CCC[C@H](C(=O)O)C1 [Example 16] is ___
OUT: 0.12 %ID/g

* * *

# test-name: In-vivo PET imaging in bleomycin treated rat model, LPA1 target engagement (% displacement)
# particulars: Sprague Dawley, rat, lung, intravenous, 30 mg/kg, bleomycin treated rats, Group 4 (30 mg/kg group, n=7), baseline
observed-property: tissue uptake (%ID/g)
Answers are plain numbers, in %ID/g.

IN: Which measured tissue uptake value corresponds to "Cc1nc(-c2nnn(C)c2COC(=O)N(C)CCCC[18F])ccc1O[C@H]1CCC[C@H](C(=O)O)C1" ?
OUT: 0.09

* * *

# measured-on: human LPA1 (Homo sapiens)
# Sequence (Q92633 whole entry): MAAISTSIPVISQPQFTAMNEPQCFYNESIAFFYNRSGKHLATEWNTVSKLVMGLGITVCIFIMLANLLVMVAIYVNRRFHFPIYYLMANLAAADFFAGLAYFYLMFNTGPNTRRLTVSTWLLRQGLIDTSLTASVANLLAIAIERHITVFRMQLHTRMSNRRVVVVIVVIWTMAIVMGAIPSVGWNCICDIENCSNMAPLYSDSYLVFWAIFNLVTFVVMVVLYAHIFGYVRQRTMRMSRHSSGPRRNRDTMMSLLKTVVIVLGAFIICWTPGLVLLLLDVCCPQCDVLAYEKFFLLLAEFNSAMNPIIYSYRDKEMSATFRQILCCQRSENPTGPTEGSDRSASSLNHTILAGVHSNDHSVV
# test-name: In-vitro whole cell binding: competition with the ^18F tracer
# particulars: CHO cells overexpressing human LPA1; ^18F tracer 3.8 nM; room temperature 1 hr; read-out: IC50, inhibition of binding of the ^18F tracer
observed-property: pIC50
Give bare numbers, as −log10 of the molar value.

IN: Identify the measured pIC50 of "Cc1nc(-c2nnn(C)c2COC(=O)N(C)CCCCF)ccc1O[C@H]1CCC[C@H](C(=O)O)C1" for human LPA1 (Homo sapiens).
OUT: 7.61
